meta.source: paper PMC11019746

system: human neuropeptide Y Y5 receptor (human) (UniProt Q15761)
Sequence (Q15761 whole entry): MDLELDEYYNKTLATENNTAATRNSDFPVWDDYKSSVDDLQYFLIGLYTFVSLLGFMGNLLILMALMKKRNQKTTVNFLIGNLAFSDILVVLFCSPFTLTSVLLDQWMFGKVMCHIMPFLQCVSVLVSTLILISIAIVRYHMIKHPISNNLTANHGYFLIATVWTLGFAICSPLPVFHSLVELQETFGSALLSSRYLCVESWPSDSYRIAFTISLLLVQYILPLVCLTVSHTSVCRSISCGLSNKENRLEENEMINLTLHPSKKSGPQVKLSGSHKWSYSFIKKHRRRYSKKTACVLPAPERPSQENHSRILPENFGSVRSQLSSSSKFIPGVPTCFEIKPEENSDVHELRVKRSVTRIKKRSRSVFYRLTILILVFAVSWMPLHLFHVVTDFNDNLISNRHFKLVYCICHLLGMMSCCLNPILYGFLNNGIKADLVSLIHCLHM
method.notes: radioligand binding; competition with [^3H]propionyl-pNPY (5 nM) at intact HEC-1B-hY5R cells, 23 ± 2 °C, buffer II (150 mM NaCl)
Where no end group is shown, it is not given here.
measurement.name: pKi

- binder: "RYRLRY-NH2 (not fully specified (bridges); also: Cy3B conjugated to the amine of the cyclic precursor peptide 6, N^ω-carbamoylated arginine in the ring, position not given here, structure drawn in Scheme 2; source: synthetic peptide: from precursor peptide 6 and Cy3B succinimidyl ester (12), preparative HPLC) [fluorescent ligand 16 (Cy3B-labeled cyclic hexapeptide)]"
  pKi: 6.32

// next entry
For the binder shown here, RYRLRY-NH2 (also: Sulfo-Cy5 (S0223) conjugated to the amine of the cyclic precursor peptide 6, N^ω-carbamoylated arginine in the ring, position not given here, peptide part as in m6; structure drawn in Scheme 2; source: synthetic peptide: from precursor peptide 6 and the succinimidyl ester 13 (S0586) of Sulfo-Cy5 (S0223), preparative HPLC) [fluorescent ligand 17 (Sulfo-Cy5-labeled cyclic hexapeptide)] , give the reported pKi.
< 6
